System: HT-29
Experiment: NCI tumour cell line growth inhibition, 48 h
Activity calls are given as the source filed them. No stated cut-off is given here; in the data, active = GI50 up to about 1.1 µM and inactive = higher.
Measurement label: GI50

Compound: COc1cc(S(=O)(=O)Nc2ccc(-c3csc(N)n3)cc2)ccc1Cl
GI50: 20.7 µM (inactive)

Compound: N#C/C(=C\Nc1ccccn1)C(=O)c1ccco1
GI50: > 100 µM (inactive)

Compound: O=[N+]([O-])c1ccc(Cl)cc1/C=N/C12CC3CC(CC(C3)C1)C2
GI50: 30.6 µM (inactive)

Compound: COC(=O)CCC1CCc2c(OC)ccc(O)c2C1=O (centres undefined)
GI50: > 100 µM (inactive)

Compound: COc1ccc(C2C(Cl)C(=O)N2NC(=O)Cc2ccccc2)cc1 (centres undefined)
GI50: > 100 µM (inactive)

[in] Supply reported GI50 belonging to this compound: CCc1c(O)c(O)c(C(C)=O)c2c(O)c(-c3c(C)cc4c(CC)c(O)c(O)c(C(C)=O)c4c3O)c(C)cc12
[out] 5.15 µM (inactive)

[in] Supply reported GI50 belonging to this compound: CC(=O)CC(=O)N1CCSC1=S
[out] > 10 µM (inactive)

[in] Supply reported GI50 belonging to this compound: O=C(O)c1ccc2c(c1)CC1(C2)Cc2cc3c(cc2C1=O)CCC3 (centres undefined)
[out] > 100 µM (inactive)

[in] Supply reported GI50 belonging to this compound: O=C(O)C1CCCN1C(=O)c1cc(Cl)ccn1 (centres undefined)
[out] > 100 µM (inactive)

[in] Supply reported GI50 belonging to this compound: Cc1ccc(S(=O)(=O)n2cc(/C=C/C#N)c(-c3cn(S(=O)(=O)c4ccc(C)cc4)cc3-c3cn(S(=O)(=O)c4ccc(C)cc4)cc3/C=C/C#N)c2)cc1
[out] > 100 µM (inactive)

[in] Supply reported GI50 belonging to this compound: C[n+]1c2ccccc2c(C(=O)NC(CCCNC(=N)N)C(=O)O)c2ccccc21 (centres undefined)
[out] > 100 µM (inactive)

[in] Supply reported GI50 belonging to this compound: CC1CNc2ccccc2N=C1NN (centres undefined)
[out] > 100 µM (inactive)

[in] Supply reported GI50 belonging to this compound: COc1cccc(NC(=O)C(C)(C)C)c1SSc1c(NC(=O)C(C)(C)C)cccc1OC
[out] 27.3 µM (inactive)

[in] Supply reported GI50 belonging to this compound: Clc1ccc(OCc2nn3c(CCc4nnc5sc(COc6ccc(Cl)cc6)nn45)nnc3s2)cc1
[out] 27.8 µM (inactive)

====

Tested on: MDA-MB-435
Test: NCI tumour cell line growth inhibition, 48 h
Active and inactive are the calls of the source. Cut-off read from the data, not from the text of the source: active = GI50 up to about 1.1 µM and inactive = higher.
Would you mind answering with one of these outcomes? 1 = active, -1 = inactive

Molecule: C1=N\CCOCC/N=C/c2ccccc2OCc2cccc(n2)COc2ccccc2/1
Discrete label: 1
--
Molecule: CC(C)(C)OC(=O)NCCC1CN(C(=O)c2ccccc2)c2ccccc21 (stereo not drawn)
Discrete label: -1

[in] Recorded test call requested for CCOC(=O)NC(Nc1ccc(F)cc1F)(C(F)(F)F)C(F)(F)F
[out] -1

====

Test system: SF-268
Test: NCI tumour cell line growth inhibition, 48 h
Active and inactive are the calls of the source. Cut-off read from the data, not from the text of the source: active = GI50 up to about 1.1 µM and inactive = higher. Peptide text beside a SMILES is read from it. * marks the point of attachment. Boc = CC(C)(C)OC(=O)*
Would you mind answering with one of these outcomes? true = active, false = inactive

Sample answers from the record:
Molecule: CC(=O)Nc1ccc(Cc2ccc3nc(O)cc(C)c3c2)cc1
Discrete label: false
--
Molecule: CCOCC(NC(=O)C(CC(C)C)NC(=O)OC(C)(C)C)C(N)=O (stereo not drawn) (Boc-Leu-Ser(Et)-NH2; configuration not given here)
Discrete label: false
--
Molecule: OCCN(C1=NCCN1)/[N+](=C\c1ccccn1)[CH-]c1ccccn1
Discrete label: false
--
Molecule: C=C(C)C12OC3(c4ccccc4)OC1C1C4OC4(CO)C(O)C4(O)C(=O)C(C)=CC4C1(O3)C(C)C2OC(=O)/C=C/C=C/c1ccccc1 (configuration not stated)
Discrete label: true
--
Molecule: Nc1ccn(C2OC(COP(=O)(O)OCC3OC(n4cc(F)c(=O)[nH]c4=O)CC3O)C(O)C2O)c(=O)n1 (configuration not stated)
Discrete label: true
--
Molecule: Clc1ccc(OCc2nn3c(CCc4nnc5sc(COc6ccc(Cl)cc6)nn45)nnc3s2)cc1
Discrete label: false
--
Molecule: C1CSCCSCCSCCSCCS1
Discrete label: false
--
Molecule: O=C1C2=C(c3ccccc31)C(c1cccc(Cl)c1)NC(S)=N2 (configuration not stated)
Discrete label: false
--
Molecule: Clc1ccc2c(c1)[nH]c1c2nc2sccn21
Discrete label: false
--
Molecule: CN(C)c1nc(NC23CC4CC(CC(C4)C2)C3)nc(N(C)C)n1
Discrete label: false

[in] Recorded test call requested for CC1=CC(=O)CCC2(C)C1CC[C@@H]2OC=O (some centres not stated)
[out] false

[in] Recorded test call requested for C=CCN1C(=O)CS/C1=N\NC(=O)c1c(C)nc2sccn12
[out] false
